Assay: Inhibitory activity against thrombin
quantity: Ki (nM)

(1) C[C@@H]1CCN(C(=O)[C@H](CCCNC(=N)N)NS(=O)(=O)c2cccc3c2NC[C@H](C)C3)[C@@H](C(=O)O)C1 [ARGATROBAN]
(2) N=C(N)c1ccc(C[C@@H](NC(=O)CNS(=O)(=O)c2ccc3ccccc3c2)C(=O)N2CCCCC2)cc1
(3) N=C(N)NCCC[C@H](NC(=O)[C@@H]1CCN2CC[C@@](N)(Cc3ccccc3)C(=O)N12)C(=O)c1nccs1
(4) Cc1cc(NS(=O)(=O)c2ccccc2)cc(OCCNc2ccncc2)c1
Place the items in sequence of falling Ki. As an answer, provide the labels arranged in the order called for.
4, 2, 3, 1
